Biological target: OPRL1 (Homo sapiens)
Construct: purchased Promega (in-house HiBiT-GPCR construct library, NanoBRET)
Sequence (P41146 whole entry): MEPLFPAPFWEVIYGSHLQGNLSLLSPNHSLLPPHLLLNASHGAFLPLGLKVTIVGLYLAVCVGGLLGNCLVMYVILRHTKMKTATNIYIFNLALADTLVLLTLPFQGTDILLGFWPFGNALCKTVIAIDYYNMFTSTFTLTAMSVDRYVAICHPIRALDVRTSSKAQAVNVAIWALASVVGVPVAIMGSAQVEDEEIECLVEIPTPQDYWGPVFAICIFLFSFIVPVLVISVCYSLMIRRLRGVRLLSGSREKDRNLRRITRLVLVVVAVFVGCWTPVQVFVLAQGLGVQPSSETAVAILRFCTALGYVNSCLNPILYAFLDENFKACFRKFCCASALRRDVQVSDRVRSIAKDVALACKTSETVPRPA
Assay: NanoBRET screen HiBiT-OPRL1 in HEK293
Assay type: binding
Settings: OPRL1; tracer 1μM
Method: Each tracer candidate was screened across the entire library of HiBiT-GPCR constructs using NanoBRET as the detection modality. As depicted in Figure 4A, the specificity of interactions was evaluated through decrease in BRET due to competitive displacement of a bound tracer by excess parental compound. Each tracer was analyzed for binding to each HiBiT-GPCR fusion in the absence and in the presence of competing parental compound. […]
metric-name: NanoBRET Fold Response
Note: the reply should be a number with no unit written.

Example compounds with recorded NanoBRET Fold Response:
O=C(CCOCCOCCOCCOCCNC(=O)CCc1ccc2n1[B-](F)(F)[N+]1=C(c3ccc[nH]3)C=CC1=C2)NCCCN1CCN(C2=Nc3ccccc3Oc3ccc(Cl)cc32)CC1 [Loxapine-a-2-NB590]; 0.89
Cc1nc2n(c(=O)c1CCN1CCC(c3noc4cc(F)ccc34)CC1)CCCC2OC(=O)NCCOCCOCCOCCOCCNC(=O)CCc1ccc2n1[B-](F)(F)[N+]1=C(c3ccc[nH]3)C=CC1=C2 (stereo not shown) [Risperidone-2-NB590]; 0.96
Cc1cc2c(s1)Nc1ccccc1N=C2N1CCN(CCCNC(=O)CCOCCOCCOCCOCCNC(=O)CCc2ccc3n2[B-](F)(F)[N+]2=C(c4ccc[nH]4)C=CC2=C3)CC1 [Olanzapine-a-2-NB590]; 0.47
O=C(CCc1ccc2n1[B-](F)(F)[N+]1=C(c3ccc[nH]3)C=CC1=C2)NCCOCCOCCNC(=O)OCCOCCN1CCN(C2=Nc3ccccc3Sc3ccccc32)CC1 [Quetiapine-a-2-NB590]; 1.00
CC(C)N(CC[C@H](c1ccccc1)c1cc(CCNC(=O)c2ccc(CNC(=O)CCc3ccc4n3[B-](F)(F)[N+]3=C(c5ccc[nH]5)C=CC3=C4)cc2)ccc1O)C(C)C [Tolterodine-BZ-NB590]; 0.88
COc1ccccc1N1CCN(CCCCN2C(=O)c3ccc(CNC(=O)CCOCCNC(=O)c4ccc(CNC(=O)CCc5ccc6n5[B-](F)(F)[N+]5=C(c7ccc[nH]7)C=CC5=C6)cc4)cc3C2=O)CC1 [NAN-190-3-NB590]; 1.41
CC(C)N(CC[C@H](c1ccccc1)c1cc(CCNC(=O)CCOCCOCCOCCOCCNC(=O)CCc2ccc3n2[B-](F)(F)[N+]2=C(c4ccc[nH]4)C=CC2=C3)ccc1O)C(C)C [Tolterodine-2-NB590]; 0.90
O=C(CCc1ccc2n1[B-](F)(F)[N+]1=C(c3ccc[nH]3)C=CC1=C2)NCc1ccc(C(=O)NCCOCCC(=O)N[C@@H]2CC[C@@]3(O)[C@H]4Cc5ccc(O)c6c5[C@@]3(CCN4CC3CC3)[C@H]2O6)cc1 [Naltrexone-3-NB590]; 0.99

// recorded NanoBRET Fold Response for CCCn1c(=O)c2[nH]c(-c3ccc(OCC(=O)NCCNC(=O)CCOCCNC(=O)c4ccc(CNC(=O)CCc5ccc6n5[B-](F)(F)[N+]5=C(c7ccc[nH]7)C=CC5=C6)cc4)cc3)nc2n(CCC)c1=O [XAC-3-NB590] : 0.72

// recorded NanoBRET Fold Response for N#CN=C(NCCCOc1cccc(CN2CCCCC2)c1)NCCNC(=O)CCOCCOCCOCCOCCNC(=O)CCc1ccc2n1[B-](F)(F)[N+]1=C(c3ccc[nH]3)C=CC1=C2 [Aminopotentidine-2-NB590] : 1.01
